Listing of recorded viability, T/C by entry.
Tested on: 889142-216-R-J1-PDC complex spheroid viability;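 further: spheroids exposed to compounds for seven days; 100% = DMSO vehicle control viability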
Experiment: Anticancer human tumor 889142-216-R-J1-PDC patient-derived bladder carcinoma cell line growth inhibition [POLQ]
Conditions: second compound 1 µM; first compound 0.1 µM; hits give low values
Procedure: Multicellular complex tumor spheroid response to Polymerase (POL) inhibitors (novobiocin, ART-558, RP6685) in combination with a variety of drugs and investigational agents in selected tumor cell lines The POL inhibitors (novobiocin, ART-558, and RP6685) were evaluated both individually and in combination with standard of care and investigational anticancer small molecules within a complex spheroid model of solid tumors. . […]
Write it as a number; the unit % goes unstated.

Some compounds with known viability, T/C results, for comparison:
* CNCc1ccc(-c2[nH]c3cc(F)cc4c3c2CCNC4=O)cc1 + COC1C(OC(N)=O)C(O)C(Oc2ccc3c(O)c(NC(=O)c4ccc(O)c(CC=C(C)C)c4)c(=O)oc3c2C)OC1(C)C | 92.6
* CC1COCCN1c1cc(C2(O)CC3CCC(C2)O3)c2cnn(-c3ccn[nH]3)c2n1 (stereo unspecified) + COC1C(OC(N)=O)C(O)C(Oc2ccc3c(O)c(NC(=O)c4ccc(O)c(CC=C(C)C)c4)c(=O)oc3c2C)OC1(C)C | 54.9
* Nc1ccn(C2OC(CO)C(O)C2(F)F)c(=O)n1 (stereo unspecified) + Nc1ccc(C#CCN(C(=O)Cc2ncc(C(F)(F)F)cc2C(F)(F)F)c2ccc(F)cc2)nn1 | 55.6
* C#Cc1c(F)ccc2cc(O)cc(-c3ncc4c(N5CC6CCC(C5)N6)nc(OCC56CCCN5CC(F)C6)nc4c3F)c12 (stereo unspecified) + Cc1cccc(N(C)C(=O)C2C(O)CCN2c2nc(C)cc(C(F)(F)F)c2C#N)c1 | 69.1
* CC1COCCN1c1cc(C2(O)CC3CCC(C2)O3)c2cnn(-c3ccn[nH]3)c2n1 (stereo unspecified) + Nc1ccc(C#CCN(C(=O)Cc2ncc(C(F)(F)F)cc2C(F)(F)F)c2ccc(F)cc2)nn1 | 47.3

// next entry
*Q* Quickly give me recorded viability, T/C for COc1cc2cc(C(=O)CCC(=O)O)sc2cc1OC + Nc1ccc(C#CCN(C(=O)Cc2ncc(C(F)(F)F)cc2C(F)(F)F)c2ccc(F)cc2)nn1
*A* 96.3
